A set of compounds tested on EBOV (HIV-1/EBOV-GP) pseudotyped virus, with measured SI (CC50/IC50), Pseudotyped:

{"columns": ["compound", "tested_on", "SI (CC50/IC50), Pseudotyped"],
 "data": [
  ["CN(C)[C@@H]1CCN(CC(c2ccccc2)c2ccccc2)C[C@@H]1CCC(=O)NCc1ccc2c(c1)OCO2 [Compound S31]", "EBOV (HIV-1/EBOV-GP) pseudotyped virus", 8.9],
  ["CC(C)N[C@H]1C[C@@H](C(=O)CN2CCN(c3cccc(C(F)(F)F)c3)CC2)N(Cc2ccccc2)C1 [Compound S33]", "EBOV (HIV-1/EBOV-GP) pseudotyped virus", 5.0],
  ["COc1ccc(CNCc2cc(F)cc(F)c2)cc1OC[C@H](O)CN1CCN(C)CC1 [Compound S29]", "EBOV (HIV-1/EBOV-GP) pseudotyped virus", 4.4],
  ["COc1ccc(CN2CCOc3cc(O[C@H]4CCCN(C)C4)cc(-c4ccc(C)s4)c3C2)c(O)c1 [Compound I49]", "EBOV (HIV-1/EBOV-GP) pseudotyped virus", 3.8],
  ["COc1ccc(OC)c(CN2CCC[C@@H](c3ccnc(SCCN4CCCC4)n3)C2)c1 [Compound S36]", "EBOV (HIV-1/EBOV-GP) pseudotyped virus", 10.6],
  ["Cc1ccc(C(=O)N/C(=C/c2ccc(-c3ccc(Br)cc3)o2)C(=O)NCCCN(C)C)cc1 [Compound I01]", "EBOV (HIV-1/EBOV-GP) pseudotyped virus", 8.2],
  ["CN(Cc1cccc(OCCN2CCN(S(=O)(=O)C3CCCCC3Cl)CC2)c1)CC1CCC(=O)N1 (stereo not shown) [Compound I53]", "EBOV (HIV-1/EBOV-GP) pseudotyped virus", 3.0]
]}

* * *

system: EBOV trVLP
Label T for high-side SI (CC50/IC50), trVLP (at or above 6) and F for low-side SI (CC50/IC50), trVLP (below it).

{"columns": ["compound", "category"],
 "data": [
  ["COc1ccc(OC)c(CN2CCC[C@@H](c3ccnc(SCCN4CCCC4)n3)C2)c1", "F"],
  ["CN(C)[C@@H]1CCN(CC(c2ccccc2)c2ccccc2)C[C@@H]1CCC(=O)NCc1ccc2c(c1)OCO2", "T"],
  ["CCOc1ccc([C@@H](O)Cn2c(=N)n(CCN3CCCCC3)c3ccccc32)cc1", "T"],
  ["Cc1ccc(C(=O)N/C(=C/c2ccc(-c3ccc(Br)cc3)o2)C(=O)NCCCN(C)C)cc1", "T"],
  ["CN1CCCC(CNC(=O)c2cc(NCc3ccccc3F)cc(S(=O)(=O)CNC(C)(C)C)c2)C1 (stereo not shown)", "T"],
  ["CN(Cc1cccc(OCCN2CCN(S(=O)(=O)C3CCCCC3Cl)CC2)c1)CC1CCC(=O)N1 (stereo not shown)", "F"],
  ["CC(C)N[C@H]1C[C@@H](C(=O)CN2CCN(c3cccc(C(F)(F)F)c3)CC2)N(Cc2ccccc2)C1", "F"],
  ["CCN1CCC[C@@H]1CN(CC1CCN(COC)CC1)C(=O)CCc1ccc(F)cc1", "T"],
  ["COc1ccc(CNCc2cc(F)cc(F)c2)cc1OC[C@H](O)CN1CCN(C)CC1", "F"]
]}

* * *

assay: in vitro; conditions: human, CC50, Pseudotyped
property_label: CC50

{"columns": ["compound", "experimental_value"],
 "data": [
  ["CN(C)[C@@H]1CCN(CC(c2ccccc2)c2ccccc2)C[C@@H]1CCC(=O)NCc1ccc2c(c1)OCO2 [Compound S31]", "42.4 µM"],
  ["CNC1CCN(c2nc3cc(OC)ccc3cc2CNCCc2ccc(OC)cc2)CC1 [Compound S49]", "66.6 µM"],
  ["CCOc1ccc([C@@H](O)Cn2c(=N)n(CCN3CCCCC3)c3ccccc32)cc1 [Compound S03]", "80 µM"],
  ["CC(C)N[C@H]1C[C@@H](C(=O)CN2CCN(c3cccc(C(F)(F)F)c3)CC2)N(Cc2ccccc2)C1 [Compound S33]", "29 µM"],
  ["COc1ccc(OC)c(CN2CCC[C@@H](c3ccnc(SCCN4CCCC4)n3)C2)c1 [Compound S36]", "66.9 µM"],
  ["COc1ccc(CN2CCOc3cc(O[C@H]4CCCN(C)C4)cc(-c4ccc(C)s4)c3C2)c(O)c1 [Compound I49]", "11 to 15 µM"],
  ["Cc1ccc(C(=O)N/C(=C/c2ccc(-c3ccc(Br)cc3)o2)C(=O)NCCCN(C)C)cc1 [Compound I01]", "11 to 15 µM"],
  ["CN(Cc1cccc(OCCN2CCN(S(=O)(=O)C3CCCCC3Cl)CC2)c1)CC1CCC(=O)N1 (stereo not drawn) [Compound I53]", "110 µM"],
  ["COc1ccc(CNCc2cc(F)cc(F)c2)cc1OC[C@H](O)CN1CCN(C)CC1 [Compound S29]", "113 µM"]
]}
